Listed next: entries and their corresponding pest or weed control at 500 g/ha.
- System: Echinochloa crus-galli (ECHCG)
- method: Post-emergence efficacy, glasshouse, evaluated after 13 days
- Type: in vivo
- condition-set: Echinochloa crus-galli, 312 h; post-emergence application, 500 g/Ha, evaluated after 13 days; read-out: Control of weed species ECHCG (100=total damage to plant; 0=no damage to plant)
Number in %, nothing else.

Use these answered entries as a reference point.
O=C(O)CC[n+]1ccc(C(=O)NCc2nccs2)cn1 [Compound A146]	100
O=C(O)CC[n+]1ccc(C(=O)NCCc2ncccn2)cn1 [Compound A145]	60
O=C(O)CC[n+]1ccc(C(=O)NCc2ccccc2)cn1 [Compound A21]	90
CC(C)N(C)C(=O)c1cc[n+](CCS(=O)(=O)O)nc1 [Compound A9]	30

Requested read-out: pest or weed control at 500 g/ha. Entry: N#CCCNC(=O)c1cc[n+](CCC(=O)O)nc1 [Compound A113]
90
